Sourced from ChEMBL document CHEMBL1201862

Measured GI50 by item
System: KM12
Assay: NCI tumour cell line growth inhibition, 48 h
The source made the active and inactive calls. Cut-off read from the data, not from the text of the source: active = GI50 up to about 1.1 µM and inactive = higher.

compound: CCOc1cc(NC(C)=O)ccc1C(=O)NN1C(=O)C(Cl)C1c1ccco1 (stereo not given)
GI50: 18.5 µM (inactive)
//
compound: N=C(N)C1CN(CCc2c[nH]cn2)C(=O)NC1=O (stereo not given)
GI50: > 100 µM (inactive)
//
compound: COc1cc2c(cc1OC)OC(c1c(OC)ccc(OC)c1O)CC2 (stereo not given)
GI50: > 100 µM (inactive)
//
compound: Cc1ccc2n(c1)cc(-c1ccc(/C=N/NC(=N)N/N=C/c3ccc(-c4cn5cc(C)ccc5[n+]4C)cc3)cc1)[n+]2C
GI50: > 100 µM (inactive)
//
compound: Clc1ccc(Nc2nnc(CNc3ccc(-c4nnc(Nc5ccc(Cl)cc5)o4)cc3)o2)cc1
GI50: 8.36 µM (inactive)

---

Recorded GI50 by entry
Tested on: MDA-N
Experiment: NCI tumour cell line growth inhibition, 48 h
Active and inactive are the calls of the source. Rule as the data show it: active = GI50 up to about 1.1 µM and inactive = higher.

compound: CSc1c2c(C)n[nH]c2nn1-c1ccccc1
GI50: > 100 µM (inactive)
//
compound: CCN(CC)CCN1C(=O)c2c(c(-c3ccccc3)c3ccccc3c2-c2ccccc2)C1=O
GI50: > 100 µM (inactive)
//
compound: N=C(N)c1ccc(OCCCCCOc2ccc(C(=N)N)cc2)cc1
GI50: 11.2 µM (inactive)
//
compound: C1=C(c2ccccc2)Nc2nnnn2C1c1ccccc1 (stereo unspecified)
GI50: 20.1 µM (inactive)
//
compound: COc1ccc(C2CCc3nc4nc(N)nc(N)c4cc3C2)cc1 (stereo unspecified)
GI50: 38.3 µM (inactive)
//
compound: COc1cccc2c1C(=O)c1c(O)c3c(c(O)c1C2=O)C[C@@](O)(/C(C)=N\O)C[C@@H]3OC1CC(N)C(O)C(C)O1 (stereo partly specified)
GI50: 1.88 µM (inactive)
//
compound: O=C(O)CC1OCC=C2CN3CCC45C6=CC(=O)C(O)=C([N+](=O)[O-])C6=NC4C1C2CC35 (stereo unspecified)
GI50: 44.7 µM (inactive)
//
compound: C[C@]12CC[C@H]3[C@@H](CC=C4C[C@@H](O)CC[C@@]43C)[C@@H]1CC[C@@H]2N(CCO)CCO
GI50: 45.9 µM (inactive)
//
compound: COc1ccc(N/N=C2\C3=C(CCC(C)(C)O3)C(=O)c3ccccc32)cc1
GI50: 15.6 µM (inactive)
//
compound: O=C1C(C(O)(C(F)(F)F)C(F)(F)F)CCC1C(O)(C(F)(F)F)C(F)(F)F (stereo unspecified)
GI50: > 36.7 µM (inactive)
//
compound: C1=Nc2sc3c(c2C2=NCCN12)CCCC3
GI50: 20.1 µM (inactive)
//
compound: Cc1nc(O)c(O)c(CN2CCCCC2)n1
GI50: > 100 µM (inactive)
//
compound: COc1ccc2nc3cc([N+](=O)[O-])ccc3c(NNc3ccc([N+](=O)[O-])cc3)c2c1
GI50: 30.5 µM (inactive)
//
compound: Clc1ccccc1-c1nnc2c(-c3ccccc3)nc3ccccc3n12
GI50: 96.6 µM (inactive)
//
compound: CC(C)(O)CO/N=C1\C(=C2\C(=O)Nc3ccccc32)Nc2ccccc21
GI50: 12.2 µM (inactive)
//
compound: CC(C)Cn1cnc2c(NCC(C)O)nc3ccccc3c21 (stereo unspecified)
GI50: > 100 µM (inactive)
//
compound: CCOP(=O)(Nc1ccccc1P(=O)(OCC)OCC)OCC
GI50: > 100 µM (inactive)
//
compound: O=[N+]([O-])/C(C(Cl)=C(Cl)Cl)=C(\Nc1cccc2cccnc12)Sc1ccccc1
GI50: 43 µM (inactive)
//
compound: CC(C)(C)NCC(O)COc1cccc2[nH]c(C#N)cc12 (stereo unspecified) [CYANOPINDOLOL]
GI50: > 100 µM (inactive)
//
compound: CC(=O)NC(Cc1c[nH]c2ccccc12)C(=O)O (stereo unspecified)
GI50: > 100 µM (inactive)
//
compound: CCc1nc2ccc(C(F)(F)F)cc2[nH]c1=O
GI50: > 100 µM (inactive)

---

Tested on: CCRF-CEM
Experiment: NCI tumour cell line growth inhibition, 48 h
Calls of active or inactive are those of the source. Rule as the data show it: active = GI50 up to about 1.1 µM and inactive = higher.
Classes used: active, inactive

compound: CCn1c2c(n(CC)c1=S)-c1c(n(CC)c(=S)n1CC)SSSS2
class label: inactive

compound: O=C(CCC1CCCCN1)Nc1ccc2c(c1)C(=O)c1ccc(NC(=O)CCN3CCCCC3)cc1C2=O (stereo not given)
class label: inactive

compound: CNc1c2cccc(C)c2nc2c(C(=O)NCCN(C)C)cccc12
class label: active

compound: COC(=O)C1=C(O)c2cc(OC)c(OC)cc2C(c2ccc(OC)c(OC)c2)C1 (stereo not given)
class label: inactive

compound: CC(/C=C1\CCC(CN(C)C)C1=O)c1cccc(Br)c1 (stereo not given)
class label: inactive

---

Tested on: OVCAR-4
Assay: NCI tumour cell line growth inhibition, 48 h
The source made the active and inactive calls. No stated cut-off is given here; in the data, active = GI50 up to about 1.1 µM and inactive = higher.

line notation: Cc1ccc(/C=N/NC2=NCCN2)s1
GI50: > 100 µM (inactive)
--
line notation: C(=C\c1cc(-c2ccc3ccccc3n2)nc2ccc3ccccc3c12)/c1ccc2ccccc2n1
GI50: > 100 µM (inactive)
--
line notation: CCCCCCCCCCCCc1ccc(S(=O)(=O)O)cc1
GI50: > 100 µM (inactive)
--
line notation: Cc1cccc(Nc2nc(NNC(=O)Cc3ccccc3)nc(NNC(=O)c3ccncc3)n2)c1
GI50: > 10 µM (inactive)
--
line notation: COc1ccc(-c2cc(=O)c3c(OC)cccc3o2)c(OC)c1OC
GI50: > 100 µM (inactive)
--
line notation: CC(C)COP(=O)(OCC(C)C)C(NS(=O)(=O)c1ccccc1)(C(F)(F)F)C(F)(F)F
GI50: 3.4 µM (inactive)
--
line notation: O=S(=O)(N/N=C/c1cccc(Cl)c1Cl)c1ccccc1
GI50: > 100 µM (inactive)
--
line notation: Cc1cc(S(=O)(=O)Nc2nnc3c4ccccc4cnn23)c(S)cc1Cl
GI50: > 100 µM (inactive)
--
line notation: CC1(C)C(=NN=C(N)N)C(C)(C)C1=NN=C(N)N
GI50: > 100 µM (inactive)
--
line notation: CCN(CC)CCN1C(=O)c2c(c(-c3ccccc3)c3ccccc3c2-c2ccccc2)C1=O
GI50: > 100 µM (inactive)
--
line notation: COc1ccccc1Nc1nc(N)nc(N)c1N=O
GI50: > 100 µM (inactive)

---

Tested on: SW-620
Experiment: NCI tumour cell line growth inhibition, 48 h
Active and inactive are the calls of the source. Cut-off read from the data, not from the text of the source: active = GI50 up to about 1.1 µM and inactive = higher.

compound: CCCc1cn2c(/C=N/NC(=N)N)c(-c3cc([N+](=O)[O-])c(Cl)cc3Cl)nc2s1
GI50: 1.61 µM (inactive)
--
compound: COc1cc([C@@H]2c3cc4c(cc3[C@@H](NCCNCCO)[C@H]3COC(=O)[C@H]23)OCO4)cc(OC)c1O
GI50: 2.84 µM (inactive)
--
compound: COc1cccc(CCCNC(=O)Cc2ccccc2CO)c1
GI50: > 100 µM (inactive)
--
compound: COc1ccc(OC)c(NC(=O)C(=O)Nn2c(S)nc3ccccc3c2=O)c1
GI50: > 100 µM (inactive)
--
compound: Cc1cc(Cl)ccc1NC(=O)CCCC(=O)C1C/C(=N/O)CC/C1=N\O (stereo not given)
GI50: > 100 µM (inactive)

---

Test system: NCI-H226
Assay: NCI tumour cell line growth inhibition, 48 h
Active and inactive are the calls of the source. Rule as the data show it: active = GI50 up to about 1.1 µM and inactive = higher.
Outcomes: active, inactive

compound: C#CC[C@@]12CC(=O)C[C@@H]1CCC1(C2)OCCO1.C#CC[C@]12CC(=O)CC[C@H]1CC(=O)C2
test target: NCI-H226
class label: inactive
--
compound: C(/Cc1ccc2c(c1)OCO2)=N\N=C1NCCCCN1
test target: NCI-H226
class label: inactive
--
compound: CN1CC=C(c2cccn2C)CC1
test target: NCI-H226
class label: inactive
--
compound: Cc1ccc(SC2C(=O)C3CC(OCc4ccccc4)C2(C)C3(C)C)cc1 (configuration not stated)
test target: NCI-H226
class label: inactive
--
compound: Cc1cccc(C(C)C)c1NC(=O)C(=O)CC(=O)c1c(C)[n+]([O-])c2ccccc2[n+]1[O-]
test target: NCI-H226
class label: inactive
--
compound: Cc1cc(=O)c2c(O)cc3c(c2o1)CC=C(COC1OC(COC2OC(CO)C(O)C(O)C2O)C(O)C(O)C1O)CO3 (configuration not stated)
test target: NCI-H226
class label: inactive
--
compound: CCOC(=O)/C(C(=O)Nc1ccc(Cl)cc1)=C(/N)N1CCCC1
test target: NCI-H226
class label: inactive
--
compound: Brc1ccccc2cc(-c3ccccc3)nc1-2
test target: NCI-H226
class label: inactive
--
compound: COc1cc(/C=C/C2=C(C#N)C(=O)OC2(C)C)ccc1O
test target: NCI-H226
class label: inactive
--
compound: N#CC(=N)c1ncn(CCO)c1NC(=O)C(F)(F)F
test target: NCI-H226
class label: inactive
--
compound: CCCCCc1cccc(=O)o1
test target: NCI-H226
class label: inactive
--
compound: NCCNC(=S)S
test target: NCI-H226
class label: inactive
--
compound: CC(=O)OC(C(=O)O)C(OC(C)=O)C(OC(C)=O)C(OC(C)=O)C(=O)O (configuration not stated)
test target: NCI-H226
class label: inactive
--
compound: CN(Cc1cnc2nc(N)nc(N)c2n1)c1ccc(C(=O)NC2CCCCC2)cc1
test target: NCI-H226
class label: inactive
--
compound: COc1ccc(-c2cc(=O)c3c(OC)cccc3o2)c(OC)c1OC
test target: NCI-H226
class label: inactive
--
compound: CCOC(=O)c1c(N2CCOCC2)[nH]c(=O)c(C(c2c(O)c(C(=O)OCC)c(N3CCOCC3)[nH]c2=O)C(C)C)c1O
test target: NCI-H226
class label: inactive
--
compound: O=C(c1ccccc1)c1nc2ccc(Cl)cc2c2c1Cc1ccccc1-2
test target: NCI-H226
class label: inactive
--
compound: CC(C)[C@]12O[C@H]1[C@@H]1O[C@@]13[C@@]1(C)CCC4=C(COC4=O)[C@@H]1C[C@@H]1O[C@@]13C2=O [TRIPTONIDE]
test target: NCI-H226
class label: active
--
compound: CC1=NN(C(=O)c2ccncc2)C(=O)C1
test target: NCI-H226
class label: inactive
--
compound: COP(=O)(OC)[C@H](O)[C@H]1C[C@@H]1c1ccccc1
test target: NCI-H226
class label: inactive
--
compound: CC(C)=CC(=O)Oc1ccc([N+](=O)[O-])cc1
test target: NCI-H226
class label: inactive
--
compound: Cc1nn(C)c2nc3ccc(Cl)cc3c(-c3ccccc3)c12
test target: NCI-H226
class label: inactive
